Test: AUC (0 to infinity) in Sprague-Dawley rat at 2 mg/kg, iv administered as single dose by LC-MS/MS analysis
Format: ADME, organism-based
Set-up: dose 2 mg/kg, route intravenous, time infinity
Details: Sprague-Dawley, in vivo
experimental-readout: AUC(0-inf) (ng·h/mL)
# output: bare number, implied unit ng·h/mL

Examples with answers:
compound: CC1=Nc2c(F)cc(-c3nc(Nc4ccc(C5CCN(C)CC5)cn4)ncc3F)cc2C12CCCC2
AUC(0-inf), ng·h/mL: 959
//
compound: CCC1(CC)C(C)=Nc2c(F)cc(-c3nc(Nc4ccc(N5CCN(C)CC5)cn4)ncc3F)cc21
AUC(0-inf), ng·h/mL: 213

Query: Which AUC(0-inf) is listed for CCN1CCC(c2ccc(Nc3ncc(F)c(-c4cc(F)c5c(c4)C4(CCCC4)C(C)=N5)n3)nc2)CC1 ?
Result: 3190

Query: Same question, CCC1(C)C(C)=Nc2c(F)cc(-c3nc(Nc4ccc(N5CCN(C)CC5)cn4)ncc3F)cc21 (stereo not given) this time
Result: 504

Query: CC1=Nc2ccc(-c3nc(Nc4ccc(N5CCNCC5)cn4)ncc3F)cc2C12CCCC2 ?
Result: 1180
